# assay summary: chemical genetic growth profiling, strain panel (AID 1159580);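 further: tested at 20 µM; growth read once vehicle control cultures reached saturation at 30 °C; 1 = growth at the plate median or of vehicle wells; lower values mean less growth of the strain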
# experimental parameters: S. cerevisiae deletion strains, growth OD, locus YDL185W, strain tfp1, active compounds read low
In all, about 5,500 compounds went through this assay and about 2,000 (36%) were called active. Another 18% or so got no clear call; they are omitted. This is one part of the list.
measured endpoint: normalized growth
Numbers only.

C1CCN2C[C@@H]3C[C@H](CN4CCCC[C@@H]34)[C@H]2C1 = 1
O=C1CCCC2C3CC(CN12)[C@@H]1CCCCN1C3 (some centres not stated) = 0.984
CC(C)(C)NCC(O)c1ccccc1Cl (configuration not stated) = 0.991
CC1(C)CC2C1(O)CCC1(C)C=CC(O)C21CO (configuration not stated) = 0.976
NC[C@H](O)c1ccc(O)c(O)c1 = 1.01

# batch: return normalized growth for each of the 3 molecules below
1. COc1cc(OC)c2c(=O)c(-c3ccccc3)c(C)oc2c1OC
2. CCOP(=S)(OCC)SCn1c(=O)oc2cc(Cl)ccc21
3. O=C(O)CCCCC1CCSS1 (configuration not stated)

Result block:
1. 1
2. 1
3. 0.942

Dear colleague, could you send me normalized growth for each of the items below? Thanks.
1. CC(C)NCC(O)c1ccc(O)c(O)c1 (configuration not stated)
2. CC(C)(C)NC[C@@H](O)COc1nsnc1N1CCOCC1
3. CSCCC(NC=O)C(=O)NC(C)C(=O)O (configuration not stated)
4. CC(=O)O[C@@H]1CC2C(C)(C)C(=O)CC[C@]2(C)C2CC[C@]3(C)C(=CC(=O)O[C@H]3c3ccoc3)[C@@]21C (some centres not stated)

Result block:
1: 0.984; 2: 0.977; 3: 0.977; 4: 0.966

* * *

# assay summary: chemical genetic growth profiling, strain panel (AID 1159580);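 further: tested at 20 µM; growth read once vehicle control cultures reached saturation at 30 °C; 1 = growth at the plate median or of vehicle wells; lower values mean less growth of the strain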
# experimental parameters: S. cerevisiae deletion strains, growth OD, locus YNL183C, strain NPR1, active compounds read low
About 2,000 (36%) of roughly 5,500 compounds were called active. Inconclusive results (about 18%) are left out. The list shows a part of the results.
So I've got a bunch of molecules here, and I need their normalized growth values.
One number for each entry.

CCOC(=O)/C(=N/Nc1c(Cl)cccc1Cl)c1csc(N)n1 = 0.91
C=C(C)C1CC=C(CO)CC1 (stereo not drawn) = 0.947
CC(=O)c1sc(SCCS(=O)(=O)c2ccc(C)cc2)c2c1CC(C)(C)CC2=O = 0.962
OC(CNCc1ccc(Cl)cc1)CO/N=C\C1=C(Cl)c2cc(Cl)ccc2OC1 (stereo not drawn) = 0.932
CCC(Cc1c(I)cc(I)c(N)c1I)C(=O)O (stereo not drawn) = 0.0218

Please give normalized growth for each item listed below.
1. O=C(O)C1=CCNCC1
2. O=C(O)c1ccccc1Nc1ccccc1
3. Cc1c(Nc2ncccc2C(=O)O)cccc1C(F)(F)F
4. C=C(C)[C@H]1CC=C(C(=O)O)CC1
5. OC[C@H]1O[C@H](OC[C@H]2O[C@@H](O)[C@H](O)[C@@H](O)[C@@H]2O)[C@H](O)[C@@H](O)[C@H]1O

Result block:
[0.958, 0.367, 0.954, 0.743, 0.997]

Hi, could you look up normalized growth for each item in my list?
1. CNc1ccccc1C(=O)O
2. O=[N+]([O-])c1ccccc1CS(=O)(=O)c1nc2ccccc2s1

Result block:
1: 0.822; 2: 0.871

Query block: Tell me the measured normalized growth of C[n+]1cccc(C(=O)[O-])c1 , please.
Result block: 0.981
